experiment: NDMC pharmacokinetics after oral administration, dried blood spot sampling, LCMS-MS; format: in vivo, C57BL/6 mice; conditions: C57BL/6, mouse, plasma; range over single oral doses of 3, 10 and 30 mg kg^−1
MEASURED PARAMETER: half-life

Q: Item under review: "O=C1CC(=O)N(c2ccccc2)c2cc(Cl)ccc2N1" . Reported half-life?
Result: 276 to 336 min
